# MEASURED TARGET: Adenosine receptor A2b (Homo sapiens)
# EXPERIMENT NOTES: Antagonist activity at human adenosine A2B receptor expressed in CHO cells assessed as inhibition of NECA-mediated cAMP accumulation at 10 uM
# Type: functional, cell-based
ENDPOINT: inhibition (%)

CCCSc1nc(NC(C)=O)cc(OCCc2ccccc2)n1: 13
CCCSc1nc(NC(C)=O)cc(OCc2ccc(OC)cc2)n1: 0

[I] CCSc1nc(NC(C)=O)cc(OCc2ccc(Cl)cc2)n1
[II] CCCSc1nc(NC(C)=O)cc(OCc2ccc(Cl)cc2)n1
Between item I and item II , which reported inhibition is smaller? Indicate your choice by writing its label.
II
(II: 0%, I: 10%)

----------
# MEASURED TARGET: Adenosine receptor A2a (Homo sapiens, UniProt P29274)
# Sequence (P29274 whole entry): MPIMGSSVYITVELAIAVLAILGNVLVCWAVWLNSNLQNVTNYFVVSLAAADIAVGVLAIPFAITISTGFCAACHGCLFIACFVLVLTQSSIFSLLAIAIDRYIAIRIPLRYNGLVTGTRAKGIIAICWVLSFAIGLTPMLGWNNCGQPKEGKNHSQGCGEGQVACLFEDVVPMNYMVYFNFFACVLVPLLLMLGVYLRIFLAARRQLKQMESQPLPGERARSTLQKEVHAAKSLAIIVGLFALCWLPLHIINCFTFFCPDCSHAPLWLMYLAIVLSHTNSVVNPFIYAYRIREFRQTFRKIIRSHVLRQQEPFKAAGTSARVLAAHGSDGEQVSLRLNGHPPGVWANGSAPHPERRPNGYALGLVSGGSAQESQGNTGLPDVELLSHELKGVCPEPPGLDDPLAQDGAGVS
# EXPERIMENT NOTES: Displacement of [3H]NECA from human adenosine A2A receptor expressed in CHO cells at 10 uM
# Type: cell-based
ENDPOINT: inhibition (%)

[A] CCCSc1nc(NC(C)=O)cc(OC)n1
[B] CCC(=O)Nc1cc(OC)nc(SC)n1
[C] CCCOc1cc(NC(C)=O)nc(SCCC)n1
[D] CCSc1nc(NC(C)=O)cc(OCc2ccc(Cl)cc2)n1
Please arrange the 4 compounds above from largest to smallest inhibition value. Sort and list the labels as requested.
D, C, B, A

----------
# MEASURED TARGET: Adenosine receptor A2a (Homo sapiens)
# EXPERIMENT NOTES: Displacement of [3H]NECA from human adenosine A2A receptor expressed in CHO cells at 10 uM
# Type: cell-based
ENDPOINT: inhibition (%)

COc1cc(NC(C)=O)nc(SC)n1: 29
CCCSc1nc(NC(C)=O)cc(OCCc2ccccc2)n1: 27
CCCSc1nc(NC(C)=O)cc(OCc2cccc(Cl)c2)n1: 41
CCCSc1nc(NC(C)=O)cc(OCc2ccc(Cl)cc2Cl)n1: 29

Where do the numbers come from? From ChEMBL document CHEMBL1143166.
